B1: TPR t1 (parent)
chain: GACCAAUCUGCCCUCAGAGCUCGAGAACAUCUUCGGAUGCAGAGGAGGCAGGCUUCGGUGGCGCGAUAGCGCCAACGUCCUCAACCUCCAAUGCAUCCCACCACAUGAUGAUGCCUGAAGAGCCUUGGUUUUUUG

- Variants of: B1
- ASSAY_DETAILS: polymerase ribozyme fitness, log enrichment relative to wild type (log ratio); higher = more active; in vitro selection for triplet polymerase activity
Threshold rule: polymerase ribozyme fitness (log ratio) greater than or equal to -2 is Fulfilled; below that, Not fulfilled.

>  <MUTANT_LABEL>
C79A C80A C88A

>  <ANSWER_LABEL>
Not fulfilled

$$$$
>  <MUTANT_LABEL>
C40A U59A G60A

>  <ANSWER_LABEL>
Fulfilled

$$$$
>  <MUTANT_LABEL>
C8A C20G G45U C73U C123G

>  <ANSWER_LABEL>
Not fulfilled

$$$$
>  <MUTANT_LABEL>
C70U C114A G128U

>  <ANSWER_LABEL>
Not fulfilled

$$$$
>  <MUTANT_LABEL>
A5C C72U C82G U87A C123G

>  <ANSWER_LABEL>
Not fulfilled

$$$$
>  <MUTANT_LABEL>
A6C G57A C62G G120C

>  <ANSWER_LABEL>
Not fulfilled

$$$$
>  <MUTANT_LABEL>
A18U G39U G61U C97U U130A

>  <ANSWER_LABEL>
Not fulfilled

$$$$
>  <MUTANT_LABEL>
A66G C72A C79A A84U

>  <ANSWER_LABEL>
Not fulfilled

$$$$
>  <MUTANT_LABEL>
G45C G51U G71C

>  <ANSWER_LABEL>
Not fulfilled

$$$$
>  <MUTANT_LABEL>
C22A U96G

>  <ANSWER_LABEL>
Not fulfilled

$$$$
>  <MUTANT_LABEL>
C11U C49A

>  <ANSWER_LABEL>
Fulfilled

$$$$
>  <MUTANT_LABEL>
C79U C80U C104U

>  <ANSWER_LABEL>
Fulfilled

$$$$
>  <MUTANT_LABEL>
C56U G65A A83U

>  <ANSWER_LABEL>
Not fulfilled

$$$$
>  <MUTANT_LABEL>
A91G G93C G120C

>  <ANSWER_LABEL>
Not fulfilled

$$$$
>  <MUTANT_LABEL>
A6C G93C A121G G127C

>  <ANSWER_LABEL>
Fulfilled

$$$$
>  <MUTANT_LABEL>
U9A A27C U30C C56G A111U

>  <ANSWER_LABEL>
Not fulfilled

$$$$
>  <MUTANT_LABEL>
C3A G25U G58C U59G C97U C123A G135U

>  <ANSWER_LABEL>
Not fulfilled

$$$$
>  <MUTANT_LABEL>
C4G U7C C34U U38G U54G G69U U109A A111G

>  <ANSWER_LABEL>
Not fulfilled

$$$$
>  <MUTANT_LABEL>
G39C G61C A83G

>  <ANSWER_LABEL>
Not fulfilled

$$$$
>  <MUTANT_LABEL>
G71C C124G G128U

>  <ANSWER_LABEL>
Fulfilled

$$$$
>  <MUTANT_LABEL>
G42C G57C A66C

>  <ANSWER_LABEL>
Not fulfilled

$$$$
>  <MUTANT_LABEL>
A43G G60A C79U G93A

>  <ANSWER_LABEL>
Not fulfilled

$$$$
>  <MUTANT_LABEL>
G47C A50U U81C C114U

>  <ANSWER_LABEL>
Not fulfilled

$$$$
>  <MUTANT_LABEL>
U21C C101A

>  <ANSWER_LABEL>
Fulfilled

$$$$
>  <MUTANT_LABEL>
C12A C70A G127U

>  <ANSWER_LABEL>
Not fulfilled

$$$$
>  <MUTANT_LABEL>
C15A G120C U129A

>  <ANSWER_LABEL>
Fulfilled

$$$$
>  <MUTANT_LABEL>
A27G A105C

>  <ANSWER_LABEL>
Not fulfilled

$$$$
>  <MUTANT_LABEL>
G48A U87A G120C C124G

>  <ANSWER_LABEL>
Fulfilled

$$$$
>  <MUTANT_LABEL>
C31U U78C

>  <ANSWER_LABEL>
Not fulfilled

$$$$
>  <MUTANT_LABEL>
C13A G69U C72A G113A

>  <ANSWER_LABEL>
Fulfilled

$$$$
>  <MUTANT_LABEL>
C53G G69A

>  <ANSWER_LABEL>
Not fulfilled

$$$$
>  <MUTANT_LABEL>
C56A C72G

>  <ANSWER_LABEL>
Fulfilled

$$$$
>  <MUTANT_LABEL>
C40U A90U

>  <ANSWER_LABEL>
Fulfilled

$$$$
>  <MUTANT_LABEL>
G25A G61U

>  <ANSWER_LABEL>
Not fulfilled

$$$$
>  <MUTANT_LABEL>
G61A C64A

>  <ANSWER_LABEL>
Not fulfilled

$$$$
>  <MUTANT_LABEL>
G52A C72G

>  <ANSWER_LABEL>
Fulfilled

$$$$
>  <MUTANT_LABEL>
C56U G61C

>  <ANSWER_LABEL>
Not fulfilled

$$$$
>  <MUTANT_LABEL>
A6U C22A C49U C72U

>  <ANSWER_LABEL>
Not fulfilled

$$$$
>  <MUTANT_LABEL>
G39A G51U A83G A95C

>  <ANSWER_LABEL>
Not fulfilled

$$$$
>  <MUTANT_LABEL>
A6U C12A G61A U78A C80U C86A G120A

>  <ANSWER_LABEL>
Not fulfilled

$$$$
>  <MUTANT_LABEL>
C88A G135U

>  <ANSWER_LABEL>
Fulfilled

$$$$
>  <MUTANT_LABEL>
A5U C13U A37U G44C U78G C98U

>  <ANSWER_LABEL>
Not fulfilled

$$$$
>  <MUTANT_LABEL>
A46G C97U

>  <ANSWER_LABEL>
Fulfilled

$$$$
>  <MUTANT_LABEL>
C8A G52A

>  <ANSWER_LABEL>
Fulfilled

$$$$
>  <MUTANT_LABEL>
U30C G58C

>  <ANSWER_LABEL>
Not fulfilled

$$$$
>  <MUTANT_LABEL>
A2G G19U G120U

>  <ANSWER_LABEL>
Not fulfilled

$$$$
>  <MUTANT_LABEL>
C13A G120U

>  <ANSWER_LABEL>
Fulfilled

$$$$
>  <MUTANT_LABEL>
G10U C20A A84U U131C

>  <ANSWER_LABEL>
Not fulfilled

$$$$
>  <MUTANT_LABEL>
A46G C56A A91U

>  <ANSWER_LABEL>
Not fulfilled

$$$$
>  <MUTANT_LABEL>
A41C C53U

>  <ANSWER_LABEL>
Fulfilled

$$$$
>  <MUTANT_LABEL>
C70U C88A C115U

>  <ANSWER_LABEL>
Not fulfilled

$$$$
>  <MUTANT_LABEL>
G51U G110A

>  <ANSWER_LABEL>
Not fulfilled

$$$$
>  <MUTANT_LABEL>
G45U C49A C88U A105U G128A

>  <ANSWER_LABEL>
Not fulfilled

$$$$
>  <MUTANT_LABEL>
A37U A105C

>  <ANSWER_LABEL>
Not fulfilled

$$$$
>  <MUTANT_LABEL>
C22G G61A C86U C123A

>  <ANSWER_LABEL>
Not fulfilled

$$$$
>  <MUTANT_LABEL>
C49A G52U A105U

>  <ANSWER_LABEL>
Not fulfilled

$$$$
>  <MUTANT_LABEL>
A2G G93C

>  <ANSWER_LABEL>
Fulfilled

$$$$
>  <MUTANT_LABEL>
G120A G127C

>  <ANSWER_LABEL>
Fulfilled

$$$$
>  <MUTANT_LABEL>
C11G G23A C76U

>  <ANSWER_LABEL>
Not fulfilled

$$$$
>  <MUTANT_LABEL>
C79U U129C

>  <ANSWER_LABEL>
Fulfilled

$$$$
>  <MUTANT_LABEL>
C53G C64A U112G C124A

>  <ANSWER_LABEL>
Not fulfilled

$$$$
>  <MUTANT_LABEL>
C8G U9G C22G

>  <ANSWER_LABEL>
Not fulfilled

$$$$
>  <MUTANT_LABEL>
C8A C11G C64A A103C A119U G120A

>  <ANSWER_LABEL>
Not fulfilled

$$$$
>  <MUTANT_LABEL>
A50G G60A

>  <ANSWER_LABEL>
Fulfilled

$$$$
>  <MUTANT_LABEL>
G61A G110A

>  <ANSWER_LABEL>
Fulfilled

$$$$
>  <MUTANT_LABEL>
G71A C73U

>  <ANSWER_LABEL>
Not fulfilled

$$$$
>  <MUTANT_LABEL>
C28G U54A G122U

>  <ANSWER_LABEL>
Not fulfilled

$$$$
>  <MUTANT_LABEL>
A46U C101U

>  <ANSWER_LABEL>
Fulfilled

$$$$
>  <MUTANT_LABEL>
C11G C115U

>  <ANSWER_LABEL>
Fulfilled

$$$$
>  <MUTANT_LABEL>
C101U U116C A119G U129A

>  <ANSWER_LABEL>
Fulfilled

$$$$
>  <MUTANT_LABEL>
A37G A121C

>  <ANSWER_LABEL>
Fulfilled

$$$$
>  <MUTANT_LABEL>
C31U C79G C124G

>  <ANSWER_LABEL>
Not fulfilled

$$$$
>  <MUTANT_LABEL>
C34U C86U C104U C114U

>  <ANSWER_LABEL>
Not fulfilled

$$$$
>  <MUTANT_LABEL>
C31G U33A G48U C49U C72G A108U G120U

>  <ANSWER_LABEL>
Not fulfilled

$$$$
>  <MUTANT_LABEL>
G44A G69U U81A

>  <ANSWER_LABEL>
Fulfilled

$$$$
>  <MUTANT_LABEL>
C70A A84U U87A

>  <ANSWER_LABEL>
Not fulfilled

$$$$
>  <MUTANT_LABEL>
U9A C12A A16C A26U G47U

>  <ANSWER_LABEL>
Not fulfilled

$$$$
>  <MUTANT_LABEL>
A27U U81C G120A G135A

>  <ANSWER_LABEL>
Not fulfilled

$$$$
>  <MUTANT_LABEL>
A46U G60C

>  <ANSWER_LABEL>
Fulfilled

$$$$
>  <MUTANT_LABEL>
C20A C89A

>  <ANSWER_LABEL>
Not fulfilled

$$$$
>  <MUTANT_LABEL>
C40G C53G G61C C104A G113A

>  <ANSWER_LABEL>
Not fulfilled

$$$$
>  <MUTANT_LABEL>
C73A G113A

>  <ANSWER_LABEL>
Fulfilled

$$$$
>  <MUTANT_LABEL>
C8G C15U G69C A90U

>  <ANSWER_LABEL>
Not fulfilled

$$$$
>  <MUTANT_LABEL>
C22A A26U A27U C76U A95G G110A

>  <ANSWER_LABEL>
Not fulfilled

$$$$
>  <MUTANT_LABEL>
A2U A37U C62U C72U U78A C124G

>  <ANSWER_LABEL>
Fulfilled

$$$$
>  <MUTANT_LABEL>
C70U C80U A90C C98U

>  <ANSWER_LABEL>
Not fulfilled

$$$$
>  <MUTANT_LABEL>
U78C C97A

>  <ANSWER_LABEL>
Not fulfilled

$$$$
>  <MUTANT_LABEL>
U14A A29G U55C C72U C86U

>  <ANSWER_LABEL>
Not fulfilled

$$$$
>  <MUTANT_LABEL>
G39C C49G G77U C94A C98G C102U C123A U131A

>  <ANSWER_LABEL>
Not fulfilled

$$$$
